Assay: Microsomal stability, rat
Assay type: in vitro ADME
# maps each entry to its Microsomal Stability: % remaining after 60 minutes
readout: Microsomal Stability: % remaining after 60 minutes (%)

compound: O=C(NC(c1ccc(Cl)cc1)c1ccccn1)C1CCN(CCOc2ccc3ccc(=O)[nH]c3c2)CC1 (stereo not shown)
observed: 68
//
compound: O=C(NC(c1ccc(Cl)cc1)c1cccnc1)C1CCN(CCOc2ccccc2)CC1 (stereo not shown)
observed: 51
//
compound: O=C(NC(c1ccc(Cl)cc1)c1ccccn1)C1CCN(CCOc2ccccc2)CC1 (stereo not shown)
observed: 55
//
compound: O=C(NC(c1ccc(Cl)cc1)c1ccccn1)C1CCN(CCn2ccc(=O)cc2)CC1 (stereo not shown)
observed: 100
//
compound: O=C(NC(c1cccc(C(F)(F)F)c1)c1ccccn1)C1CCN(CCOc2ccccc2)CC1 (stereo not shown)
observed: 46
//
compound: O=C(NC(c1ccc(F)cc1)c1ccccn1)C1CCN(CCOc2ccccc2F)CC1 (stereo not shown)
observed: 66
//
compound: O=C(NC(c1ccc(Cl)cc1)c1ccccn1)C1CCN(CCOc2ccc(C(F)(F)F)cc2)CC1 (stereo not shown)
observed: 100
//
compound: O=C(NC(c1ccccn1)c1ccccc1F)C1CCN(CCOc2ccccc2)CC1 (stereo not shown)
observed: 78
//
compound: O=C(NC(c1ccc(Cl)cc1)c1ccccn1)C1CCN(CCOc2ccccc2C(F)(F)F)CC1 (stereo not shown)
observed: 32
//
compound: O=C(NC(c1ccc(Cl)cc1)c1ccccn1)C1CCN(CCOc2ccc(F)cc2F)CC1 (stereo not shown)
observed: 77

====

# maps each entry to its EC50
Target: human D2R/β-arrestin (Homo sapiens (Human), UniProt P14416)
Sequence (P14416 whole entry): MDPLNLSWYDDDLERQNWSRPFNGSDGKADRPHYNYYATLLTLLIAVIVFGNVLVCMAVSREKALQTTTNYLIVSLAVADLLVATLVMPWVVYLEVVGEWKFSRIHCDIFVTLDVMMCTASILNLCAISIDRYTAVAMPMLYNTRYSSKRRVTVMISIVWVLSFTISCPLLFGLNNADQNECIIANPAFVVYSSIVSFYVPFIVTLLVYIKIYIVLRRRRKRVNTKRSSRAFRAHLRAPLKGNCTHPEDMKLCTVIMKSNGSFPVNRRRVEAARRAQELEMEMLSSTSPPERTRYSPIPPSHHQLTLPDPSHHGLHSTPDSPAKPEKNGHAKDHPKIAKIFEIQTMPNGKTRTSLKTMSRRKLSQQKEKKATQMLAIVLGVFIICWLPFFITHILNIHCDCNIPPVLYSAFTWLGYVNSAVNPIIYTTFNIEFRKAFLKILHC
Experiment: Gi/cAMP agonist assay (Lance Ultra cAMP, Forskolin)
Type: cell-based
Settings: CHO-K1 cell line expressing human D2R/β-arrestin
readout: EC50

molecule: CC1(CNC(c2ccc(F)cc2)c2ccccn2)CCN(CCOc2ccccc2C(F)(F)F)CC1 (stereo not shown) [Compound 101]
observed: > 30 µM

molecule: O=C(NC(c1ccc(F)cc1)c1ccccn1)C1CCN(CCOc2ccccc2Cl)CC1 (stereo not shown) [Compound 53]
observed: > 30 µM

molecule: O=C(NC(c1ccc(Cl)cc1)c1cccnc1)C1CCN(CCOc2ccccc2)CC1 (stereo not shown) [Compound 111]
observed: 0.1 to 1 µM

molecule: COc1ccc(OCCN2CCC(C(=O)NC(c3ccc(Cl)cc3)c3ccccn3)CC2)cc1 (stereo not shown) [Compound 13]
observed: 1 to 10 µM

====

Test: Microsomal stability, mouse
readout: Microsomal Stability: % remaining after 60 minutes

compound: CN(CC1CCN(CCOc2ccccc2)CC1)C(c1ccc(Cl)cc1)c1ccccn1 (single isomer, unassigned) [Compound 79b]
observed: m0%
--
compound: O=C(NC(c1ccc(F)cc1)c1ccccn1)C1CCN(CCOc2ccccc2)CC1 (stereo not shown)
observed: 76%
--
compound: O=C(NC(c1ccc(Cl)cc1)c1ccccn1)C1CCN(CCOc2ccccc2C(F)(F)F)CC1 (single isomer, unassigned) [Compound 6b]
observed: m2%
--
compound: CN(C(=O)C1CCN(CCOc2ccccc2)CC1)C(c1ccc(Cl)cc1)c1ccccn1 (stereo not shown)
observed: m0%
--
compound: O=C(NC(c1ccc2c(c1)OC(F)(F)O2)c1ccccn1)C1CCN(CCOc2ccccc2)CC1 (single isomer, unassigned) [Compound 119b]
observed: m51%
--
compound: O=C(NC(c1ccc(F)cc1)c1ccccn1)C1CCN(CCOc2ccccc2F)CC1 (stereo not shown)
observed: 29%
--
compound: Clc1ccc(C(c2ccccn2)N2CCC3(CCN(CCOc4ccccc4)CC3)C2)cc1 (stereo not shown) [Compound 105]
observed: m18%
